test system: A549; test: NCI tumour cell line growth inhibition, 48 h
Calls of active or inactive are those of the source. Cut-off read from the data, not from the text of the source: active = GI50 up to about 1.1 µM and inactive = higher.
Observable: GI50

Worked examples, 4 compounds total:
>>> print(df.to_string())
                                   compound  measured_target               result
0                 Cc1cc(C)c2cc(N)c(Cl)nc2n1             A549  > 100 µM (inactive)
1  Cc1ccc(C2C(Cl)C(=O)N2n2cnc3ccccc3c2=O)cc1 (stereo not given)             A549  > 100 µM (inactive)
2          O=c1[nH]nc(Cc2ccccc2)n1Nc1ccccc1             A549  > 100 µM (inactive)
3  COc1ccc(C(=O)C(C(=O)CCC(=O)Nc2cccc(C(F)(F)F)c2)c2ccccc2)cc1 (stereo not given)             A549   65.9 µM (inactive)

Proceed to the following item.
GI50 measured on CC1(C)CN=C(Nc2cccc(C(F)(F)F)c2)S1 = > 100 µM (inactive)
